src = patent US8465756B2

- Tested on: human HLA-A24 and β2-microglobulin
- PROTOCOL_DESCRIPTION: MHC-peptide complex formation assay (ELISA), HLA-A24
- Assay type: binding
- EXPERIMENTAL_CONDITIONS: MHC-peptide formation rate versus positive control peptide
REPORTED_ENDPOINT: Relative binding (%) to HLA-A24

> print(dat)
                             sequence.entry  display.unit  experimental.value
1  QYLLDTSTW (Synthetic HLA-A24 restricted CTL epitope (138-147 aa of TAL6)) [Peptide 27, TAL6 position 138-147]             %              110.75
2  GYCVIVAAL (Synthetic HLA-A24 restricted CTL epitope (105-113 aa of TAL6)) [Peptide 24, TAL6 position 105-113]             %              117.78
3  RFVWFFSGI (Synthetic HLA-A24 restricted CTL epitope (45-53 aa of TAL6)) [Peptide 22, TAL6 position 45-53]             %               91.88
4  IVEWNVSLF (Synthetic HLA-A24 restricted CTL epitope (155-163 aa of TAL6)) [Peptide 29, TAL6 position 155-163]             %               41.01

A: TFASTEGQYL (Synthetic HLA-A24 restricted CTL epitope (131-140 aa of TAL6)) [Peptide 26, TAL6 position 131-140]
B: IAANILLYF (Synthetic HLA-A24 restricted CTL epitope (22-30 aa of TAL6)) [Peptide 19, TAL6 position 22-30]
C: EWNVSLFSIL (Synthetic HLA-A24 restricted CTL epitope (157-166 aa of TAL6)) [Peptide 31, TAL6 position 157-166]
Q: Hi! Can you put these in order of Relative binding (%) to HLA-A24, lowest number first? Answer with the labels in sequence, matching the requested order.
A: B, C, A
(B: 0.00%, C: 22.24%, A: 115.71%)

====

- Tested on: human HLA-A24 and β2-microglobulin
- PROTOCOL_DESCRIPTION: MHC-peptide complex formation assay (ELISA), HLA-A24
- Format: binding
- EXPERIMENTAL_CONDITIONS: MHC-peptide formation rate versus positive control peptide
REPORTED_ENDPOINT: Relative binding (%) to HLA-A24

Here are 3 sequences together with their reported answers.
> print(dat)
                             sequence.entry  experimental.value
1  FFSGIVGGGL (Synthetic HLA-A24 restricted CTL epitope (49-57 aa of TAL6)) [Peptide 23, TAL6 position 49-57]               72.36
2  TFASTEGQY (Synthetic HLA-A24 restricted CTL epitope (131-139 aa of TAL6)) [Peptide 25, TAL6 position 131-139]               49.24
3  LYFPNGETKY (Synthetic HLA-A24 restricted CTL epitope (28-36 aa of TAL6)) [Peptide 20, TAL6 position 28-36]               84.95

a: KYASENHLS (Synthetic HLA-A24 restricted CTL epitope (36-44 aa of TAL6)) [Peptide 21, TAL6 position 36-44]
b: CYGKCARCI (Synthetic HLA-A24 restricted CTL epitope (2-10 aa of TAL6)) [Peptide 17, TAL6 position 2-10]
c: GGIEFILCL (Synthetic HLA-A24 restricted CTL epitope (170-178 aa of TAL6)) [Peptide 32, TAL6 position 170-178]
d: GGIEFILCLI (Synthetic HLA-A24 restricted CTL epitope (170-179 aa of TAL6)) [Peptide 33, TAL6 position 170-179]
Q: Rank entries according to their Relative binding (%) to HLA-A24, from the largest number down. // list labels; follow requested order
A: b, a, c, d
(b: 125.73%, a: 64.59%, c: 25.29%, d: 14.85%)

====

Quick reference: Relative binding (%) to HLA-A24 of the listed items.
- Tested on: human HLA-A24 and β2-microglobulin
- PROTOCOL_DESCRIPTION: MHC-peptide complex formation assay (ELISA), HLA-A24
- Assay type: binding
- EXPERIMENTAL_CONDITIONS: MHC-peptide formation rate versus positive control peptide
Supply the numeric figure in %, leaving out any unit text.

> print(dat)
                             sequence.entry                              system  display.unit  experimental.value
1  HSLVGLALL (Synthetic HLA-A24 restricted CTL epitope (12-20 aa of TAL6)) [Peptide 18, TAL6 position 12-20]  human HLA-A24 and β2-microglobulin             %               61.73
2  HIVEWNVSLF (Synthetic HLA-A24 restricted CTL epitope (154-163 aa of TAL6)) [Peptide 28, TAL6 position 154-163]  human HLA-A24 and β2-microglobulin             %               28.03

Q: Recorded Relative binding (%) to HLA-A24 of EWNVSLFSI (Synthetic HLA-A24 restricted CTL epitope (157-165 aa of TAL6)) [Peptide 30, TAL6 position 157-165] , please.
A: 74.01
